Listed next: entries and their corresponding IC50.
- target: PI3Kδ (p110δ/p85α) (Homo sapiens (Human), UniProt O00329)
- Sequence (O00329 whole entry): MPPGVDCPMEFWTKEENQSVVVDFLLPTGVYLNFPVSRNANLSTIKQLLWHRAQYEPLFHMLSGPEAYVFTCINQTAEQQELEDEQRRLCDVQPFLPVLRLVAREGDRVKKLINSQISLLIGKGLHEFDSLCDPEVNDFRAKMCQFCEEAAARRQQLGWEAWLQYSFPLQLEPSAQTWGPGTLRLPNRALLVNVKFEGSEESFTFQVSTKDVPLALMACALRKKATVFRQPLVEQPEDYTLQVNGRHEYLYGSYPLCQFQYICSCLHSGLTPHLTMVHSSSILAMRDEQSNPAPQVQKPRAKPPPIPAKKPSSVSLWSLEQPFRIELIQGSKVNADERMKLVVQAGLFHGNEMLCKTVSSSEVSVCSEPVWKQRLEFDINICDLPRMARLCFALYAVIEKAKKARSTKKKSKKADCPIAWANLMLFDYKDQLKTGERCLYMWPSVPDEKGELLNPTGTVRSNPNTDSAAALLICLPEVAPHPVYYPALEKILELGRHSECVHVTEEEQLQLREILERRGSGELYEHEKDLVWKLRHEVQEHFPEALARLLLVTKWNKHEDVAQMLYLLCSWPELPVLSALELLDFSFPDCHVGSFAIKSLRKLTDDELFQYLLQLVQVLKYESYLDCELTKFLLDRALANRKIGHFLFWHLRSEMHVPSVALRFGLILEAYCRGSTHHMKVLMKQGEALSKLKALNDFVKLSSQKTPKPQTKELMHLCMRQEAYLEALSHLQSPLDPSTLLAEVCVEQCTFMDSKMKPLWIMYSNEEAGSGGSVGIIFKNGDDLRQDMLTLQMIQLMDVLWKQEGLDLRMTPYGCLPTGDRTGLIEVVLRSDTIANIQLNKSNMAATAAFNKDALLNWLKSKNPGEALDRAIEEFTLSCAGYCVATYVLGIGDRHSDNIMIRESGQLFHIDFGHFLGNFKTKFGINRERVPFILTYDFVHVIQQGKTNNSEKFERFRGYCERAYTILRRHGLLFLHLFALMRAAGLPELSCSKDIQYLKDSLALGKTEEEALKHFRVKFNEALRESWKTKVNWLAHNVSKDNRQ
- Sequence (P27986 whole entry partner): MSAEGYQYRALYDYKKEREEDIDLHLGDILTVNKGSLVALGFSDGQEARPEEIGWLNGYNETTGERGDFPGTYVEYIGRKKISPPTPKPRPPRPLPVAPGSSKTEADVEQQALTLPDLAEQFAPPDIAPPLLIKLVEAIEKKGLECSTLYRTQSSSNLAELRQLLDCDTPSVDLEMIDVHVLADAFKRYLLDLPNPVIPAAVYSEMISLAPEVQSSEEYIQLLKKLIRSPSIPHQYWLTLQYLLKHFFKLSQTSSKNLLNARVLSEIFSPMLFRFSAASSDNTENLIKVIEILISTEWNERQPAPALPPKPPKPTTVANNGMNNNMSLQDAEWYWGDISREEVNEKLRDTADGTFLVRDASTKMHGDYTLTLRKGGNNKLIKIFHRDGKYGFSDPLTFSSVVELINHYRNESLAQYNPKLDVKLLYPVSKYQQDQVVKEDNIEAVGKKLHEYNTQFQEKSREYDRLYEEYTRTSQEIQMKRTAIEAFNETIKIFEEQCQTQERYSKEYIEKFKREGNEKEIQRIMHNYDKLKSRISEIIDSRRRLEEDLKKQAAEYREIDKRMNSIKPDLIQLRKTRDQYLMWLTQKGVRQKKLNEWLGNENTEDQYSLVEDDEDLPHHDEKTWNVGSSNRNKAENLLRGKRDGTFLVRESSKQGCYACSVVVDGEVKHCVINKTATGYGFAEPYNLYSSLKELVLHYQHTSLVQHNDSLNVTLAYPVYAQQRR
- experiment_summary: PI3Kδ scintillation proximity assay (Example A3)
- recorded_conditions: 20 μM ATP, 20 μM PIP2, 4 nM PI3Kδ; read-out: PI3Kδ SPA IC50

// known answers, use as guide
1. CCS(=O)(=O)N1CC(c2c(C#N)c(Cl)cc(C(C)n3nc(C)c4c(N)ncnc43)c2OC)C1 (single isomer, unassigned) [Example 286] : ≤ 10 nM
2. CCOC(=O)N1CC(c2c(C#N)c(Cl)cc(C(C)n3nc(C)c4c(N)ncnc43)c2OC)C1 (single isomer, unassigned) [Example 290] : ≤ 10 nM

Alright, here's another molecule for you.
Recorded IC50 of CCC(=O)N1CC(c2c(C#N)c(Cl)cc(C(C)n3nc(C)c4c(N)ncnc43)c2OC)C1 (single isomer, unassigned) [Example 282] , please.
≤ 10 nM

* * *

# Lookup of reported pIC50 keyed by entry
- target: PI3Kδ (p110δ/p85α) (Homo sapiens (Human), UniProt O00329)
- experiment_summary: PI3Kδ scintillation proximity assay (Example A3)
- recorded_conditions: 20 μM ATP, 20 μM PIP2, 4 nM PI3Kδ; read-out: PI3Kδ SPA IC50
pIC50: −log10 of the molar value.

Consider the worked cases shown below.
1) COc1c(C(C)n2nc(C)c3c(N)ncnc32)cc(Cl)c(C#N)c1C1CN(C(C)C)C1 (centres unmarked) : ≥ 8.00
2) COc1c(C(C)n2nc(C)c3c(N)ncnc32)cc(Cl)c(C#N)c1C1CN(S(=O)(=O)C2CC2)C1 (single isomer, unassigned) : ≥ 8.00
3) CCOc1c(C(C)n2nc(C)c3c(N)ncnc32)cc(Cl)c(F)c1C1CNC(=O)O1 (single isomer, unassigned) [Example 355] : 6.70 to 7.30
4) CNC(=O)c1ccc(-c2c(C)c(Cl)cc(C(C)n3ccc(=O)c4c(N)ncnc43)c2OC)cn1 (racemic) [Example 33, bis(trifluoroacetate)] : ≥ 8.00
5) COc1c(C(C)n2nc(C)c3c(N)ncnc32)cc(Cl)c(C)c1C1CN(C(=O)C2CC2)C1 (single isomer, unassigned) : ≥ 8.00
6) COc1c(C(C)n2ncc3c(N)ncnc32)cc(Cl)c(C)c1-c1ccnc(C(=O)NCCO)c1 (racemic) : 6.70 to 7.30
7) COc1c(C(C)n2nc(C)c3c(N)ncnc32)cc(Cl)c(C#N)c1C1CN(CC2CC2)C1 (single isomer, unassigned) : ≥ 8.00
8) COc1c(C(C)n2nc(C)c3c(N)ncnc32)cc(Cl)c(C)c1CC1CC1 (single isomer, unassigned) : 6.70 to 7.30
9) CCOc1c(C(C)n2nc(C)c3c(N)ncnc32)cc(Cl)c(F)c1C1CN(CC)C1 (racemic) : ≥ 8.00
10) CCOc1c(C(C)n2nc(C)c3c(N)ncnc32)cc(Cl)c(C#N)c1C1CN(C(=O)NC(C)(C)C)C1 (single isomer, unassigned) : ≥ 8.00

For PI3Kδ (p110δ/p85α) (Homo sapiens (Human), UniProt O00329), provide pIC50 of CCOc1c(C(C)n2nc(C)c3c(N)ncnc32)cc(Cl)c(C#N)c1C1CN(CC(C)C)C1 (single isomer, unassigned) please.
≥ 8.00

Could you share what pIC50 was measured for CCOc1c(C(C)n2nc(C)c3c(N)ncnc32)cc(C)c(C#N)c1-c1ccc(C(=O)N(C)C)nc1 (single isomer, unassigned) [314 (2nd peak)] , tested on PI3Kδ (p110δ/p85α) (Homo sapiens (Human), UniProt O00329)?
≥ 8.00

Form entry - test system: PI3Kδ (p110δ/p85α) (Homo sapiens (Human), UniProt O00329); read-out: pIC50; molecule: CCOc1c(C(C)n2nc(C)c3c(N)ncnc32)cc(Cl)c(C#N)c1C1CN(C(=O)NC)C1 (centres unmarked)
≥ 8.00

State its pIC50 on PI3Kδ (p110δ/p85α) (Homo sapiens (Human), UniProt O00329): COc1c(C(C)n2nc(C(F)F)c3c(N)ncnc32)cc(Cl)c(F)c1C1CN(C)C1 (centres unmarked)
≥ 8.00

# get_value(readout= pIC50, system= PI3Kδ (p110δ/p85α) (Homo sapiens (Human), UniProt O00329)) for CCOc1c(C(C)n2nc(C)c3c(N)ncnc32)cc(Cl)c(C)c1-c1ccc(C(=O)NC)nc1 (single isomer, unassigned)
≥ 8.00

Query pIC50 on PI3Kδ (p110δ/p85α) (Homo sapiens (Human), UniProt O00329) for COc1c(C(C)n2nc(C)c3c(N)ncnc32)cc(Cl)c(F)c1C1CN(CC(C)(C)O)C1 (racemic)
≥ 8.00

Requested read-out pIC50, target or system PI3Kδ (p110δ/p85α) (Homo sapiens (Human), UniProt O00329), entry COc1c(C(C)n2ccc(=O)c3c(N)ncnc32)cc(Cl)c(C)c1-c1cncc(C#N)c1 (racemic) [Example 27, bis(trifluoroacetate)]
≥ 8.00

For PI3Kδ (p110δ/p85α) (Homo sapiens (Human), UniProt O00329), provide pIC50 of CCNC(=O)N1CC(c2c(C#N)c(Cl)cc(C(C)n3nc(C)c4c(N)ncnc43)c2OCC)C1 (single isomer, unassigned) please.
≥ 8.00

Please state recorded pIC50 (tested on PI3Kδ (p110δ/p85α) (Homo sapiens (Human), UniProt O00329)) of COc1c(C(C)n2nc(C(F)F)c3c(N)ncnc32)cc(C#N)c(F)c1C1CN(CCO)C1 (racemic)
≥ 8.00

Kindly state the measured pIC50 obtained for CCOc1c(C(C)n2nc(-c3ccc(F)cc3)c3c(N)ncnc32)cc(Cl)c(C)c1-c1ccc(C(=O)N(C)C)nc1 (racemic) [Example 55, bis(trifluoroacetate)] with PI3Kδ (p110δ/p85α) (Homo sapiens (Human), UniProt O00329).
7.30 to 8.00

Write down the reported pIC50 of COc1c(C(C)n2ccc(=O)c3c(N)ncnc32)cc(Cl)c(C)c1-c1cncc(F)c1 (racemic) [Example 31, bis(trifluoroacetate)] , test system: PI3Kδ (p110δ/p85α) (Homo sapiens (Human), UniProt O00329).
≥ 8.00

Write down the reported pIC50 of CCOc1c(C(C)n2nc(C)c3c(N)ncnc32)cc(Cl)c(C#N)c1C1CNC(=O)O1 (stereo not drawn) [323 (2nd peak)] , test system: PI3Kδ (p110δ/p85α) (Homo sapiens (Human), UniProt O00329).
≥ 8.00

Requested read-out pIC50, target or system PI3Kδ (p110δ/p85α) (Homo sapiens (Human), UniProt O00329), entry CCOc1c(C(C)n2nc(C)c3c(N)ncnc32)cc(Cl)c(C)c1-c1ccnc(C(=O)N(C)CCO)c1 (single isomer, unassigned)
≥ 8.00

PI3Kδ (p110δ/p85α) (Homo sapiens (Human), UniProt O00329) / pIC50 / COc1c(C(C)n2nc(C)c3c(N)ncnc32)cc(Cl)c(C#N)c1-c1cncc(S(C)(=O)=O)c1 (single isomer, unassigned) : value?
≥ 8.00

Notebook: pull reported pIC50 for PI3Kδ (p110δ/p85α) (Homo sapiens (Human), UniProt O00329), entry COc1c(C(C)n2nc(C)c3c(N)ncnc32)cc(Cl)c(C)c1C1CC1 (single isomer, unassigned)
7.30 to 8.00

Find the measured pIC50: item CCOc1c(C(C)n2nc(C)c3c(N)ncnc32)cc(Cl)c(C#N)c1C1CN(CC(F)(F)F)C1 (single isomer, unassigned) , target or system PI3Kδ (p110δ/p85α) (Homo sapiens (Human), UniProt O00329).
≥ 8.00
